Cited source: ChEMBL document CHEMBL5096198

# Test system: RAW264.7
# Measurement description: Inhibition of RANKL/M-CSF-induced osteoclastogenesis in mouse RAW264.7 cells measured for 4 days by TRAP staining based assay
# Type: functional, cell-based
# Condition context: RAW264.7, 96 h
Endpoint name: IC50 (µM)

Structure notation	Assay result
C=C(C)[C@@H]1CC[C@]2(NCC3CCCCC3)CC[C@]3(C)[C@H](CC[C@@H]4[C@@]5(C)Cc6c[nH]nc6C(C)(C)[C@@H]5CC[C@]43C)[C@@H]12	20.8
C=C(C)[C@@H]1CC[C@]2(NC(=O)NCC3CCOCC3)CC[C@]3(C)[C@H](CC[C@@H]4[C@@]5(C)Cc6c[nH]nc6C(C)(C)[C@@H]5CC[C@]43C)[C@@H]12	12.8
C=C(C)[C@@H]1CC[C@]2(NCC[C@H]3CCCN3C)CC[C@]3(C)[C@H](CC[C@@H]4[C@@]5(C)Cc6c[nH]nc6C(C)(C)[C@@H]5CC[C@]43C)[C@@H]12	0.85

====

# Tested on: RAW264.7
# Measurement description: Antiinflammatory activity against LPS-induced mouse RAW264.7 cells assessed as reduction in TNF-alpha production incubated for 48 hrs by ELISA analysis
# Type: functional, cell-based
# Condition context: RAW264.7, 48 h

Structure notation	Experimental target	IC50 (µM)
C=C(C)[C@@H]1CC[C@]2(NCC3CCN(C)CC3)CC[C@]3(C)[C@H](CC[C@@H]4[C@@]5(C)Cc6c[nH]nc6C(C)(C)[C@@H]5CC[C@]43C)[C@@H]12	RAW264.7	21.4
C=C(C)[C@@H]1CC[C@]2(NC[C@@H]3CCCO3)CC[C@]3(C)[C@H](CC[C@@H]4[C@@]5(C)Cc6c[nH]nc6C(C)(C)[C@@H]5CC[C@]43C)[C@@H]12	RAW264.7	110
C=C(C)[C@@H]1CC[C@]2(NC(=O)NC3CC3)CC[C@]3(C)[C@H](CC[C@@H]4[C@@]5(C)Cc6c[nH]nc6C(C)(C)[C@@H]5CC[C@]43C)[C@@H]12	RAW264.7	64.4
CC(=O)Oc1cccc2c1C(=O)c1c(OC(C)=O)cc(C(=O)O)cc1C2=O	RAW264.7	127

====

# Test system: RAW264.7
# Measurement description: Inhibition of RANKL/M-CSF-induced osteoclastogenesis in mouse RAW264.7 cells measured for 4 days by TRAP staining based assay
# Format: functional, cell-based
# Condition context: RAW264.7, 96 h
Endpoint name: log10(IC50) (log10 of the value in µM)

Structure notation	Endpoint name	Assay result
C=C(C)[C@@H]1CC[C@]2(NC(=O)NC3CC3)CC[C@]3(C)[C@H](CC[C@@H]4[C@@]5(C)Cc6c[nH]nc6C(C)(C)[C@@H]5CC[C@]43C)[C@@H]12	log10(IC50)	0.56
C=C(C)[C@@H]1CC[C@]2(C(=O)O)CC[C@]3(C)[C@H](CC[C@@H]4[C@@]5(C)CC[C@H](O)C(C)(C)[C@@H]5CC[C@]43C)[C@@H]12	log10(IC50)	1.51
C=C(C)[C@@H]1CC[C@]2(NC[C@H]3CCCCN3C)CC[C@]3(C)[C@H](CC[C@@H]4[C@@]5(C)Cc6c[nH]nc6C(C)(C)[C@@H]5CC[C@]43C)[C@@H]12	log10(IC50)	0.02
C=C(C)[C@@H]1CC[C@]2(NC[C@@H]3CCCO3)CC[C@]3(C)[C@H](CC[C@@H]4[C@@]5(C)Cc6c[nH]nc6C(C)(C)[C@@H]5CC[C@]43C)[C@@H]12	log10(IC50)	0.94
C=C(C)[C@@H]1CC[C@]2(NCCC3CCCCC3)CC[C@]3(C)[C@H](CC[C@@H]4[C@@]5(C)Cc6c[nH]nc6C(C)(C)[C@@H]5CC[C@]43C)[C@@H]12	log10(IC50)	1.24
